Form field: Activity (one value per entry).
Molecular target: Protein cereblon/Mitogen-activated protein kinase 14 (Homo sapiens, UniProt Q16539+Q96SW2)
Sequence (Q16539 2-360 limits assumed): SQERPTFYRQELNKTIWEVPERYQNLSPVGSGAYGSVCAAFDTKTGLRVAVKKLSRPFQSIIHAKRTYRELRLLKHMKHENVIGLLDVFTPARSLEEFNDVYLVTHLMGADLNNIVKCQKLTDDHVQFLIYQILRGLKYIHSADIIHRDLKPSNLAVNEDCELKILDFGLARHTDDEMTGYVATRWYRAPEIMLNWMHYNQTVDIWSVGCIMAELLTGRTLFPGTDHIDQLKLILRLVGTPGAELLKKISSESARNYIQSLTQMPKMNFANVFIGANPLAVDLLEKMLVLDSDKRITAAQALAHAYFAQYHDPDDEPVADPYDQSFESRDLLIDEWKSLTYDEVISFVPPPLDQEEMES
Sequence (Q96SW2 whole entry partner): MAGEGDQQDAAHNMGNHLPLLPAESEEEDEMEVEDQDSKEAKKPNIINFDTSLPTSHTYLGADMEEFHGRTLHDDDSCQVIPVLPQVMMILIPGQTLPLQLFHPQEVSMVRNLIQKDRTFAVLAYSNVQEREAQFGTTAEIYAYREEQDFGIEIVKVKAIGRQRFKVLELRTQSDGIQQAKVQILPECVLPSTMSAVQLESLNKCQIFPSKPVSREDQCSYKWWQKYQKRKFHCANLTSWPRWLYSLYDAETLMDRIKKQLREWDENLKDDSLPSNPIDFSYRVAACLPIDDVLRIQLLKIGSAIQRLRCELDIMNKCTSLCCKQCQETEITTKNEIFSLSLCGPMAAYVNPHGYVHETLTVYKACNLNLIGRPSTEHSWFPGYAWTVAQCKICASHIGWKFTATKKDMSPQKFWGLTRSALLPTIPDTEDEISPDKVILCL
Assay: Protac activity at CRBN/p38alpha in human T47D cells assessed as p38alpha degradation at 10 uM measured after 24 hrs by immunoblotting analysis
Assay type: cell-based

Previously resolved entries follow.
Cc1ccc(C(=O)NCCCCc2cn(CCCC(=O)NCCCCCCNc3cccc4c3C(=O)N(C3CCC(=O)NC3=O)C4=O)nn2)cc1-n1c(C)cc(OCc2ccc(F)cc2F)c(Br)c1=O (stereo not drawn); 47%
Cc1ccc(C(=O)NCCOCCOCCOCCOCCOCCOCCNc2cccc3c2C(=O)N(C2CCC(=O)NC2=O)C3=O)cc1-n1c(C)cc(OCc2ccc(F)cc2F)c(Br)c1=O (stereo not drawn); 20%
C=C1c2cccc(NCCCCCNC(=O)CCCn3cc(CCCCNC(=O)c4ccc(C)c(-n5c(C)cc(OCc6ccc(F)cc6F)c(Br)c5=O)c4)nn3)c2C(=O)N1C1CCC(=O)NC1=O (stereo not drawn); 16%

Problem: Can you look up the measured Activity of Cc1ccc(C(=O)NCCc2cn(CCCC(=O)NCCNc3cccc4c3C(=O)N(C3CCC(=O)NC3=O)C4=O)nn2)cc1-n1c(C)cc(OCc2ccc(F)cc2F)c(Br)c1=O (stereo not drawn) for me?
Solution: 8%

Problem: Ok, now Cc1ccc(C(=O)NCCCCc2cn(CCOCCOCCOCCOCCNc3cccc4c3C(=O)N(C3CCC(=O)NC3=O)C4=O)nn2)cc1-n1c(C)cc(OCc2ccc(F)cc2F)c(Br)c1=O (stereo not drawn)
Solution: 41%

Problem: Ok, now Cc1ccc(C(=O)NCCCCc2cn(CCOCCOCCOCCNc3cccc4c3C(=O)N(C3CCC(=O)NC3=O)C4=O)nn2)cc1-n1c(C)cc(OCc2ccc(F)cc2F)c(Br)c1=O (stereo not drawn)
Solution: 26%

Problem: Ok, now Cc1ccc(C(=O)NCCCCc2cn(CCCC(=O)NCCNc3cccc4c3C(=O)N(C3CCC(=O)NC3=O)C4=O)nn2)cc1-n1c(C)cc(OCc2ccc(F)cc2F)c(Br)c1=O (stereo not drawn)
Solution: 40%

Problem: Ok, now Cc1ccc(C(=O)NCCCCc2cn(CCCC(=O)NCCCCNc3cccc4c3C(=O)N(C3CCC(=O)NC3=O)C4=O)nn2)cc1-n1c(C)cc(OCc2ccc(F)cc2F)c(Br)c1=O (stereo not drawn)
Solution: 89%
